The origin of these recorded values is PubChem BioAssay (NCI).

- System: OVCAR-8 ovarian
- Assay details: NCI-60 one-dose screen, 48 h (100 = growth as untreated, 0 = no growth, -100 = all killed)
- Measurement conditions: 10 µM unless noted
This is part of a sample that, as a whole, favours compounds with a hit. Of some 83,000 tested, about 20% had one in any assay. Activity calls are given as the source filed them. Rule for the calls: active = growth percent below 10; inactive = the rest.
Please go through the items and note down their growth.

Look over these answered cases.
{"Smi": "O=C(Nc1ccc(Cl)cc1F)c1cc(Br)ccc1O", "growth": "9.53% (active)"}
{"Smi": "O=c1c2cc(F)ccc2sc2c(Nc3ccncc3)nc3ccccc3c12", "growth": "-18% (active)"}
{"Smi": "O=C(Nc1ccc(I)cc1F)c1cc(F)ccc1O", "growth": "6.16% (active)"}

# input Consider the molecule `O=C(COc1cc(O)c2c(=O)cc(-c3ccccc3)oc2c1)Nc1ccccc1` and give its recorded growth.
# output 87.2% (inactive)
